Source listed as PubChem BioAssay AID1508591.

Reported half-life is given for each of the following molecules.
# CONDITION DESCRIPTION: rat; liver microsomes; pH 7.4; 15.0 min; 1.0 µM
Answer in min, number only, no unit symbol.

ENTRY SMILES: CCOC(=O)c1cc(C)sc1NC(=O)c1ccc(Cl)s1
OBSERVED MEASUREMENT: 5.49

# next molecule below
Supply measured half-life of Cc1ccc(-c2nc(C)c(C(=O)Nc3ccc4c(c3)C(=O)N3CCC[C@H]3C(=O)N4)s2)cc1 in your reply.
27.2

###

Measured half-life by item
# CONDITION DESCRIPTION: rat; liver microsomes; pH 7.4; 15.0 min; 1.0 µM
Give the value in min but do not write min after it.

Consider the following illustrative entries.
COMPOUND: CC1=C(C(=O)NC2CCCC2)C(c2nn(C)cc2Cl)N=C(Nc2nc3ccccc3o2)N1 (centres undefined)
UNITS SYMBOL: min
half-life: 2.7

COMPOUND: Cc1ccc(C)c(CN2CCC(CNC(=O)Nc3ccc(Br)cc3F)CC2)c1
UNITS SYMBOL: min
half-life: 3.58

COMPOUND: CCOC(=O)c1ccc(NC(=O)c2sc3nc4c(cc3c2N)N2CCC4CC2)cc1
UNITS SYMBOL: min
half-life: 1.21

COMPOUND: CC(=O)c1ccc(N[S+](=O)([O-])c2cccc(NC(=O)c3[nH]c(C)c(C(C)=O)c3C)c2)cc1
UNITS SYMBOL: min
half-life: 21

COMPOUND: O=C(Nc1ccccc1C(=O)Nc1ccccc1C(=O)NCc1ccco1)c1ccco1
UNITS SYMBOL: min
half-life: 11

Continue with the next compound.
Determine its reported half-life: O=S(=O)(Nc1cnc2ccccc2c1)c1ccc(NCc2ccc(Br)cc2O)cc1
18

###

# CONDITION DESCRIPTION: rat; liver microsomes; pH 7.4; 15.0 min; 1.0 µM
Item-by-item account of half-life
Give just the numeric value; min need not be written.

# annotated cases, reported half-life shown
COMPOUND: CC1=C(C(=O)Nc2nc3ccccc3s2)C(c2[nH]ncc2Cl)N=C(Nc2nc3ccccc3o2)N1 (centres undefined)
UNITS SYMBOL: min
half-life: 10.4

COMPOUND: c1cnc(N2CCN(Cc3c[nH]c4ccccc34)CC2)nc1
UNITS SYMBOL: min
half-life: 1.6

COMPOUND: CCOC(=O)c1ccc(NC(=O)N2Cc3[nH]cnc3C[C@H]2c2nc(C(C)C)no2)cc1
UNITS SYMBOL: min
half-life: 6.65

COMPOUND: Fc1ccc(-c2csc3ncnc(NCc4ccc5c(c4)OCO5)c23)cc1
UNITS SYMBOL: min
half-life: 19.2

COMPOUND: CC(C)N(CCCNC(=O)Nc1ccc(C(C)(C)C)cc1)C[C@H]1O[C@@H](n2ccc3c(N)ncnc32)[C@H](O)[C@@H]1O
UNITS SYMBOL: min
half-life: 2.42

Now consider a different compound.
Identify half-life associated with the compound CCOc1ccc(NC(=O)c2ccc(F)c(S(=O)(=O)N(CC)Cc3ccccc3)c2)cc1
1.3

###

Measured log10 of half-life of individual entries
# CONDITION DESCRIPTION: rat; liver microsomes; pH 7.4; 15.0 min; 1.0 µM
// do not treat as linear: log10 of half-life, unit min

Use the examples below as a reference point.
COMPOUND: CCOC(=O)c1nc(Nc2ccc(N3CCC(C)CC3)cc2)c2ccccc2n1
log10 of half-life: 0.21
//
COMPOUND: COc1cccc(CNc2ccc(S(=O)(=O)Nc3ccc4ccccc4c3)cc2)c1O
log10 of half-life: 1.00

Let me know recorded log10 of half-life for COCc1cc(C)nc(SCC(=O)c2ccc(O)c(O)c2)c1C#N , thanks.
1.28

// Input: OCc1ccc(-c2nn(Cc3ccccc3)c3ccccc23)o1 . Output its log10 of half-life only.
0.71
